# GI50 per entry
Test system: TK-10
MEASUREMENT_PROTOCOL: NCI tumour cell line growth inhibition, 48 h
Calls of active or inactive are those of the source. Cut-off read from the data, not from the text of the source: active = GI50 up to about 1.1 µM and inactive = higher.

Consider the worked cases shown below.
O=C1C2CCN(CC2)C1CN1CCOCC1 (configuration not stated); 6.82 µM (inactive)
O=Cc1ccc(-c2ccc(S(=O)(=O)O)cc2)o1; > 100 µM (inactive)
O=C1CC(c2ccccc2)NCN1 (configuration not stated); > 100 µM (inactive)
CC(C)=CCC[C@@H](C)C1=C(O)C(=O)C(C)=C(Nc2ccccc2F)C1=O; 29.9 µM (inactive)
C=CCNc1ccc(C)cc1; > 100 µM (inactive)
COC(=O)c1c(-c2ccc(Cl)cc2)cc2c3ccccc3n(C)c2c1C(=O)OC; > 100 µM (inactive)

# evaluate next
Query: For the molecule Cc1c(C(=O)NNc2ccccc2)n2c(S)nnc2c2ccccc12 , what GI50 is on record?
Response: > 100 µM (inactive)

* * *

Test system: Malme-3M
MEASUREMENT_PROTOCOL: NCI tumour cell line growth inhibition, 48 h
Calls of active or inactive are those of the source. No stated cut-off is given here; in the data, active = GI50 up to about 1.1 µM and inactive = higher.
# output must be one of yes (1) for active, no (0) for inactive

Use these answered entries as a reference point.
O=C1NC2c3c(I)sc(I)c3/C(=N\O)C2O1 (stereo unspecified); no (0)
CN(C)CCCN1c2ccccc2CCc2cccc([N+](=O)[O-])c21; no (0)
CC(NC(=O)NC(C)(C)C)NC(=O)C(N)CC(=O)O (stereo unspecified); no (0)

Query: What did the test return for CC(C)=CCC/C(C)=C/Cc1c(O)ccc2c1[nH]c1cc(O)c(C)cc12 ?
Response: no (0)

Query: Can you look up the reported call for O=C1OC(CC(=O)c2ccc(Cl)c(Cl)c2)C(Cl)=C1Cl (stereo unspecified) for me?
Response: no (0)

Query: What did this assay record as the result for O=S1(=O)N=C(SCc2ccccc2)N(c2ccccc2)c2ccncc21 ?
Response: no (0)

* * *

Tested on: SF-539
MEASUREMENT_PROTOCOL: NCI tumour cell line growth inhibition, 48 h
Activity calls are given as the source filed them. No stated cut-off is given here; in the data, active = GI50 up to about 1.1 µM and inactive = higher.
Could you please pick one outcome from this set? yes (1) (active), no (0) (inactive)

NC(CO)c1ccccc1 (configuration not stated); no (0)
O=C(Nc1c(Cl)cc([N+](=O)[O-])cc1Cl)C(=O)C1C(=O)NC(=S)NC1=O; no (0)
CN(C)CCCN1c2ccccc2CCc2cccc([N+](=O)[O-])c21; no (0)

Query: In this assay, the call recorded for COC(=O)C1Cc2c([nH]c3ccccc23)-c2[nH]c3ccccc3c2CC(NC(C)=O)C(=O)NCC(=O)NCC(=O)N1 (configuration not stated) was what?
Response: no (0)

Query: I would be grateful if you could indicate the recorded call for NC(CCCCP(=O)(O)O)C(=O)O (configuration not stated) .
Response: no (0)

Query: # outcome recorded in this test, key = CNCCCn1c2ccccc2c2c3c(c(-c4ccsc4)cc21)C(=O)NC3=O
Response: yes (1)

Query: Just curious, what result did O=c1c2ccccc2sc2nc(O)nn12 get here?
Response: no (0)

Query: Please state the recorded outcome for this compound: CCc1cc(C)cc2[n+]1CC=C2C.[O-][Cl+3]([O-])([O-])[O-]
Response: no (0)

Query: // outcome(item) with item = Cc1cc(S(=O)(=O)Nc2nc3ccsc3c(=O)n2N)c(S)cc1Cl
Response: no (0)

Query: Recorded call for CCOC(=O)C(C)Sc1nnc(COc2ccccc2OC)n1-c1ccccc1 (configuration not stated) ?
Response: no (0)

Query: What outcome does the record of this test show for CC(C)c1cc2c(c(O)c1O)[C@@]1(C(=O)O)CCCC(C)(C)[C@@H]1CC2 ?
Response: no (0)

Query: Each compound tested received a call. Report the one for COc1ccccc1NC1Oc2cc3c(cc2C(c2cc(OC)c(OC)c(OC)c2)C1C)OCO3 (configuration not stated) .
Response: no (0)

Query: Hi, sorry to bother you, what did the test record for O=C1NC2c3c(I)sc(I)c3/C(=N\O)C2O1 (configuration not stated) ?
Response: no (0)

Query: Hi team, can someone confirm the assay call for Cn1cnc([N+](=O)[O-])c1Sc1nccc(O)n1 ?
Response: no (0)

* * *

System: SF-539
MEASUREMENT_PROTOCOL: NCI tumour cell line growth inhibition, 48 h
Activity calls are given as the source filed them. Cut-off read from the data, not from the text of the source: active = GI50 up to about 1.1 µM and inactive = higher.
Your reply should match one of these outcome classes. 1 (active), 0 (inactive)

CCCCCCCC(=O)OCC1OC(n2cc(F)c(=O)[nH]c2=O)C(N)C(OC(=O)CCCCCCC)C1O (stereo unspecified); 0
Cc1ccc(N2C(=O)C(=O)N(/N=C3\C(=O)Nc4ccccc43)C2=S)cc1; 0
CC1=NOC(C)(O)/C1=N/O (stereo unspecified); 0
Cc1c(O)c(OC2OC(CO)C(O)C(O)C2O)cc2c1CC[C@@H]1C2(C)C(=O)C[C@]2(C)[C@@H]([C@@](C)(O)C3CCC(C)(C)O3)[C@H](O)C[C@@]12C (stereo partly specified); 0
O=[N+]([O-])c1ncc(N(CCO)CCO)s1; 0
CN(C)CCNC(=O)c1cc([N+](=O)[O-])cc2c1Oc1ccccc1O2; 0

Query: How was OC1CCCC1C(O)(C(F)(F)F)C(F)(F)F (stereo unspecified) classified in this test?
Response: 0

Query: # lookup: test call for O=Cc1ccc(-c2ccc(S(=O)(=O)O)cc2)o1
Response: 0

Query: Called result for COC(=O)/C=C(\C(=O)OC)C1C(=O)Oc2c(C)c(=O)c3ccccc3n21 (stereo unspecified)
Response: 0

Query: What was the test verdict on Cc1ncc(CCl)c2c1OC(C)(C)OC2 ?
Response: 0

Query: Test call, this compound: O=C1Nc2ccc([N+](=O)[O-])cc2/C1=N/NC(=S)Nc1ccc([N+](=O)[O-])cc1
Response: 0

Query: Name the outcome recorded for CN1c2ccccc2C2c3c(O)ccc(O)c3C=C([N+](=O)[O-])C21 (stereo unspecified) in the assay.
Response: 0

* * *

Tested on: LOX IMVI
MEASUREMENT_PROTOCOL: NCI tumour cell line growth inhibition, 48 h
Calls of active or inactive are those of the source. Cut-off read from the data, not from the text of the source: active = GI50 up to about 1.1 µM and inactive = higher.
MEASUREMENT_KIND: GI50

Some entries whose results are on file:
Cc1nc(=O)[nH]c2c1C(=O)N(C(C)C)C(NC(C)C)S2 (stereo not given); 83.6 µM (inactive)
COC(=O)C1=C(C)N(NC(=O)c2ccccc2)C2(O)CCCC(=O)C12C (stereo not given); > 100 µM (inactive)
CC(=O)OCC1OC(Nc2nc(O)n(C)c(=O)c2-c2csc(N)n2)C(OC(C)=O)C(OC(C)=O)C1OC(C)=O (stereo not given); > 100 µM (inactive)
Cc1cc([C@H](C#N)c2nc3ccccc3[nH]2)nc(Cl)n1; 38.8 µM (inactive)

We now examine a further compound.
Query: Sample Cc1c(C(=O)NNc2ccccc2)n2c(S)nnc2c2ccccc12 — what was its GI50?
Response: > 100 µM (inactive)

* * *

Test system: NCI/ADR-RES
MEASUREMENT_PROTOCOL: NCI tumour cell line growth inhibition, 48 h
Active and inactive are the calls of the source. Rule as the data show it: active = GI50 up to about 1.1 µM and inactive = higher.
# GI50 values compiled below

Cc1cc(-c2ccc(C(=O)O)[nH]2)on1; 24.9 µM (inactive)
O=C(CSc1nc(O)nc2[nH]cnc12)Nc1ccccc1; > 100 µM (inactive)
CCN(CCO)CCNc1ccc(C)c2sc3ccccc3c(=O)c12; 3.07 µM (inactive)
Cc1ccc(-n2cc(-c3ccc(Cl)cc3)c3c(N/N=C4\SCC(=O)N4C)ncnc32)cc1; 6.65 µM (inactive)
NP(=O)(OCC1=CC(=O)c2ccccc2C1=O)N(CCBr)CCBr (stereo unspecified); 8.49 µM (inactive)

Query: For the compound COC(=O)/C=C(\C(=O)OC)C1C(=O)Oc2c(C)c(=O)c3ccccc3n21 (stereo unspecified) , what GI50 is on record?
Response: > 100 µM (inactive)

Query: Query (compound): Cc1ccc(C(=O)CC(Cl)=C(Cl)Cl)cc1 ; field requested: GI50
Response: > 100 µM (inactive)

Query: Recorded GI50 for N#Cc1ccccc1NC(=O)C(O)C(O)C(O)C(O)C=O (stereo unspecified) , please?
Response: > 100 µM (inactive)

Query: Could you tell me which GI50 is on file for OCCOc1ccccc2cccc1-2 ?
Response: > 100 µM (inactive)

Query: Item CCOC(=O)c1cc(C2CCN(Cc3ccccc3)C2=O)c(C(=O)/C=C(/C)N)[nH]1 (stereo unspecified) has what recorded GI50?
Response: 72.1 µM (inactive)

Query: Which GI50 value is on record for Cc1cc([C@H](C#N)c2nc3ccccc3[nH]2)nc(Cl)n1 ?
Response: 30.1 µM (inactive)

* * *

System: Hs-578T
MEASUREMENT_PROTOCOL: NCI tumour cell line growth inhibition, 48 h
Calls of active or inactive are those of the source. No stated cut-off is given here; in the data, active = GI50 up to about 1.1 µM and inactive = higher.
MEASUREMENT_KIND: GI50

COc1cc(C2c3cc4c(cc3OC(NNc3ccccc3)C2C)OCO4)cc(OC)c1O (stereo unspecified); 2.83 µM (inactive)
ClCCCCCc1c2nc(c(CCCCCCl)c3ccc([nH]3)c(CCCCCCl)c3nc(c(CCCCCCl)c4ccc1[nH]4)C=C3)C=C2; > 100 µM (inactive)
O=[N+]([O-])c1ncc(N(CCO)CCO)s1; 32.1 µM (inactive)
O=C1OC(c2ccccc2)=NC1c1ccccc1 (stereo unspecified); > 100 µM (inactive)
Cc1cc(NC(=O)C(=O)Cc2nc3ccccc3s2)ccc1Cl; > 100 µM (inactive)

Query: # query: GI50 of entry OC(C1CCC=NN1C(O)(C(F)(F)F)C(F)(F)F)(C(F)(F)F)C(F)(F)F (stereo unspecified)
Response: > 10 µM (inactive)

Query: Value lookup for GI50; key = COC(=O)c1ccccc1NCc1cc(O)ccc1O
Response: 19.7 µM (inactive)

Query: Request the reported GI50 associated with CCCCCCCCCc1cccc(N2C(N)=NC(N)=NC2(C)C)c1
Response: 1.04 µM (active)

Query: Report GI50 for O=C(Nc1nc(C23CC4CC(CC(C4)C2)C3)cs1)c1cc2ccc(O)cc2oc1=O please.
Response: 14.5 µM (inactive)

Query: Reported GI50 for Cc1cc(-c2ccc(C(=O)O)[nH]2)on1 : what is it?
Response: 49.2 µM (inactive)

Query: Requested read-out: GI50. Entry: COc1ccc(OC)c2c(/C=C/c3ccc(N(C)C)cc3)ccnc12
Response: 8.15 µM (inactive)

Cited source for all entries: ChEMBL document CHEMBL1201862
